The measured values listed here are drawn from patent US6326378A.

Test system: conscious dogs (beagles)
assayComment: Effect on heart rate and arterial blood pressure of conscious dogs
Assay type: in vivo, dog
conditionDescription: edible oil + 2% DMSO, 24 mg/kg oral, 120 min; preliminary value 111

# smilesEntry, unitsOfMeasure, MAP
rows = [
    ("c1ccn2c(=Nc3ccncc3)snc2c1", "mmHg", 109),
]

* * *

System: conscious dogs (beagles)
assayComment: Effect on heart rate and arterial blood pressure of conscious dogs
Assay type: in vivo, dog
conditionDescription: edible oil + 2% DMSO, 24 mg/kg oral, 300 min; preliminary value 171

# compound, SBP
data = [
    ("c1ccn2c(=Nc3ccncc3)snc2c1 [Example 2b]", "169 mmHg"),
]
